test: Ratio of inhibitory activities against human tryptase to that of human trypsin
List of Ratio values.
measurement-kind: Ratio

CN(CCCCc1ccccc1)C(=O)N1CCN(C(=O)N2C(=O)[C@H](CC3CCCN(C(=N)N)C3)[C@H]2C(=O)O)CC1 (stereo not given in full) :: 2170
CC(C)C(OC(=O)N1CCN(C(=O)N2C(=O)[C@H](CCCN=C(N)N)[C@H]2C(=O)O)CC1)C(C)C :: 5
CC(C)(C)NC(=O)N1CCN(C(=O)N2C(=O)[C@H](CCCN=C(N)N)[C@H]2C(=O)O)CC1 :: 18
CC(C)C(OC(=O)N1CCN(C(=O)N2C(=O)[C@H](CC3CCCN(C(=N)N)C3)[C@H]2C(=O)O)CC1)C(C)C (stereo in doubt; form 2) :: 364
N=C(N)N1CCCC(C[C@H]2C(=O)N(C(=O)N3CCN(C(=O)CCCCCC4CCCCC4)CC3)[C@@H]2C(=O)O)C1 (stereo not given in full) :: 1680
CC(C)C(OC(=O)N1CCN(C(=O)N2C(=O)[C@H](CC3CCCN(C(=N)N)C3)[C@H]2C(=O)O)CC1)C(C)C (stereo in doubt; form 1) :: 258
N=C(N)N1CCCC(C[C@H]2C(=O)N(C(=O)N3CCN(C(=O)CCCCCc4ccccn4)CC3)[C@@H]2C(=O)O)C1 (stereo not given in full) :: 739
CC(C)C(OC(=O)N1CCN(C(=O)N2C(=O)[C@H](CC3CN(C(=N)N)C3)[C@H]2C(=O)O)CC1)C(C)C :: 7

* * *

test: Ratio of inhibitory activities against human tryptase to that of human thrombin
measurement-kind: Ratio

N=C(N)N1CCCC(C[C@H]2C(=O)N(C(=O)N3CCN(C(=O)OCCCOc4ccccc4)CC3)[C@@H]2C(=O)O)C1 (some centres not stated) :: > 19400
CC(C)C(OC(=O)N1CCN(C(=O)N2C(=O)[C@H](CC3CN(C(=N)N)C3)[C@H]2C(=O)O)CC1)C(C)C :: > 2840
CC(C)C(OC(=O)N1CCN(C(=O)N2C(=O)[C@H](CCCN=C(N)N)[C@H]2C(=O)O)CC1)C(C)C :: > 9170
CC(C)C(OC(=O)N1CCN(C(=O)N2C(=O)[C@H](CC3CCCN(C(=N)N)C3)[C@H]2C(=O)O)CC1)C(C)C (stereo in doubt; form 1) :: > 465
N=C(N)NCCC[C@H]1C(=O)N(C(=O)N2CCN(C(=O)CCCCCc3ccccc3)CC2)[C@@H]1C(=O)O :: > 16500
CN(CCCCc1ccccc1)C(=O)N1CCN(C(=O)N2C(=O)[C@H](CC3CCCN(C(=N)N)C3)[C@H]2C(=O)O)CC1 (some centres not stated) :: > 5500
N=C(N)N1CCCC(C[C@H]2C(=O)N(C(=O)N3CCN(C(=O)CCCCCc4ccccn4)CC3)[C@@H]2C(=O)O)C1 (some centres not stated) :: > 7150

* * *

List of Ratio values.
experiment: Ratio of inhibitory activities against human tryptase to that of human urokinase plasminogen activator (microPa)
measurement-kind: Ratio

N=C(N)N1CCC[C@H](C[C@H]2C(=O)N(C(=O)N3CCN(C(=O)CCCCCc4ccccc4)CC3)[C@@H]2C(=O)O)C1 :: > 11800
N=C(N)N1CCCC(C[C@H]2C(=O)N(C(=O)N3CCN(C(=O)NCCCCc4ccccc4)CC3)[C@@H]2C(=O)O)C1 (some centres not stated) :: > 8780
CC(C)C(OC(=O)N1CCN(C(=O)N2C(=O)[C@H](CC3CCCN(C(=N)N)C3)[C@H]2C(=O)O)CC1)C(C)C (stereo in doubt; form 1) :: > 465
CC(C)(C)NC(=O)N1CCN(C(=O)N2C(=O)[C@H](CCCN=C(N)N)[C@H]2C(=O)O)CC1 :: 135
N=C(N)NCCC[C@H]1C(=O)N(C(=O)N2CCN(C(=O)CCCCCc3ccccc3)CC2)[C@@H]1C(=O)O :: > 226
CC(C)C(OC(=O)N1CCN(C(=O)N2C(=O)[C@H](CC3CCCN(C(=N)N)C3)[C@H]2C(=O)O)CC1)C(C)C (stereo in doubt; form 2) :: > 465
N=C(N)N1CCCC(C[C@H]2C(=O)N(C(=O)N3CCN(C(=O)OCCCOc4ccccc4)CC3)[C@@H]2C(=O)O)C1 (some centres not stated) :: > 19400
